Data provenance: patent US20230263822A1

- assay.info: Hematology assays in cynomolgus monkeys (Example 45)
- Assay type: in vivo
- particulars: day 15
- Protocol: Groups, each consisting of two male and three female monkeys, were injected subcutaneously with ISIS 416838, ISIS 416850, ISIS 416858, ISIS 416864, or ISIS 417002 in escalating doses. […] Body weights were measured weekly. […]
I'd be grateful if you could share measured eosinophils for these entries.
One number for each entry, in %.

Dear colleague, could you please provide eosinophils for the substances listed below?
1. ISIS 416858: MOE gapmer, nucleobases 1275 to 1318 of SEQ ID NO: 1 (Table 8) (antisense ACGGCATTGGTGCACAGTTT; MOE gapmer, wing and gap sizes not given here)
2. ISIS 417002: MOE gapmer, nucleobases 1275 to 1318 of SEQ ID NO: 1 (Table 8) (antisense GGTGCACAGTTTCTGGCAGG; MOE gapmer, wing and gap sizes not given here)
3. ISIS 416864: MOE gapmer, nucleobases 1275 to 1318 of SEQ ID NO: 1 (Table 8) (antisense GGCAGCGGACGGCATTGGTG; MOE gapmer, wing and gap sizes not given here)

0.3
0.1
0.5
